# systemUnderTest: T1, human tissue factor pathway inhibitor (TFPI) (human, UniProt P10646 29-304, limits assumed); also: test concentration or dose not given here
# T1 sequence (looked up): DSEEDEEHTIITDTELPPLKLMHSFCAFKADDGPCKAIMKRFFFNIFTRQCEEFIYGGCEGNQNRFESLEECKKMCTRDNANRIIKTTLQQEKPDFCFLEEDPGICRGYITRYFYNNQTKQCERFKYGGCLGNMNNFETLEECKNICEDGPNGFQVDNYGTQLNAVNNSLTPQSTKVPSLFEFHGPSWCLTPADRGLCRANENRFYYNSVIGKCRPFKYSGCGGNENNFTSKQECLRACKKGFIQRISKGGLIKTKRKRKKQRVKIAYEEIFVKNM
# experimentSummary: cell-based or functional assay
measuredEndpoint: % inhibition of hTFPI activity
Param answer (str): number followed by unit.

Example entries begin here.
>>> measuredresult("TP-3C2 Fab (Fab, V domains shown, Human Fab from HuCal Gold, expressed in E. coli TG1) VH: QVQLQQSGPGLVKPSQTLSLTCAISGDSVSSSSAAWSWIRQSPGRGLEWLGMIYYRSKWYNHYAVSVKSRITINPDTSKNQFSLQLNSVTPEDTAVYYCARGGSGVMDVWGQGTLVTVSS VL: DIQMTQSPSSLSASVGDRVTITCRASQSITNYLNWYQQKPGKAPKLLIYDVSNLQSGVPSRFSGSGSGTDFTLTISSLQPEDFAVYYCQQYSGYPLTFGQGTKVEIKR")
"92%"
>>> measuredresult("TP-2G9 Fab (Fab, V domains shown, Human Fab from HuCal Gold, expressed in E. coli TG1) VH: QVQLVESGGGLVQPGGSLRLSCAASGFTFNSYAMTWVRQAPGKGLEWVSAIKSDGSNTYYADSVKGRFTISRDNSKNTLYLQMNSLRAEDTAVYYCARNDSGWFDVWGQGTLVTVSS VL: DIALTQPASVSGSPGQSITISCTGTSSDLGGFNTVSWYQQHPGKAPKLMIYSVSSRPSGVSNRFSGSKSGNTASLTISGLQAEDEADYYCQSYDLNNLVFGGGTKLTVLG")
"0%"
>>> measuredresult("TP-3A4 Fab (Fab, V domains shown, Human Fab from HuCal Gold, expressed in E. coli TG1) VH: QVQLVESGGGLVQPGGSLRLSCAASGFTFSSYWMHWVRQAPGKGLEWVSSISYDSSNTYYADSVKGRFTISRDNSKNTLYLQMNSLRAEDTAVYYCARYGGMDYWGQGTLVTVSS VL: DIELTQPPSVSVAPGQTARISCSGDNLRDKYASWYQQKPGQAPVLVIYSKSERPSGIPERFSGSNSGNTATLTISGTQAEDEADYYCSSYTLNPNLNYVFGGGTKLTVLG")
"0%"
>>> measuredresult("TP-2G7 Fab (Fab, V domains shown, Human Fab from HuCal Gold, expressed in E. coli TG1) VH: QVQLVESGGGLVQPGGSLRLSCAASGFTFNSYAMSWVRQAPGKGLEWVSNISSNSSNTYYADSVKGRFTISRDNSKNTLYLQMNSLRAEDTAVYYCARKGGGEHGFFPSDIWGQGTLVTVSS VL: DIELTQPPSVSVAPGQTARISCSGDNLGTYYVHWYQQKPGQAPVLVIYGDNNRPSGIPERFSGSNSGNTATLTISGTQAEDEADYYCQTYDSNNESIVFGGGTKLTVLG")
"55%"

TP-2C1 Fab (Fab, V domains shown, Human Fab from HuCal Gold, expressed in E. coli TG1) VH: QVQLVESGGGLVQPGGSLRLSCAASGFTFSPYVMSWVRQAPGKGLEWVSSISSSSSNTYYADSVKGRFTISRDNSKNTLYLQMNSLRAEDTAVYYCARGDSYMYDVWGQGTLVTVSS VL: DIELTQPPSVSVAPGQTARISCSGDSIGSYYAHWYQQKPGQAPVLVIYYDSKRPSGIPERFSGSNSGNTATLTISGTQAEDEADYYCQAYTGQSISRVFGGGTKLTVLG yielded % inhibition of hTFPI activity of 21%

TP-2E5 Fab (Fab, V domains shown, Human Fab from HuCal Gold, expressed in E. coli TG1) VH: QVQLQQSGPGLVKPSQTLSLTCAISGDSVSSNSAAWSWIRQSPGRGLEWLGMIFYRSKWNNDYAVSVKSRITINPDTSKNQFSLQLNSVTPEDTAVYYCARVNANGYYAYVDLWGQGTLVTVSS VL: DIQMTQSPSSLSASVGDRVTITCRASQPIYNSLSWYQQKPGKAPKLLIYGVSNLQSGVPSRFSGSGSGTDFTLTISSLQPEDFAVYYCLQVDNLPITFGQGTKVEIKR yielded % inhibition of hTFPI activity of 0%

TP-2G6 Fab (Fab, V domains shown, Human Fab from HuCal Gold, expressed in E. coli TG1) VH: QVQLQQSGPGLVKPSQTLSLTCAISGDSVSSSSAAWSWIRQSPGRGLEWLGIIYYRSKWYNDYAVSVKSRITINPDTSKNQFSLQLNSVTPEDTAVYYCARHSMVGFDVWGQGTLVTVSS VL: DIVLTQSPATLSLSPGERATLSCRASQYVTSSYLAWYQQKPGQAPRLLIYGSSRATGVPARFSGSGSGTDFTLTISSLEPEDFATYYCQQYSSSPITFGQGTKVEIKR yielded % inhibition of hTFPI activity of 86%

TP-3G1 Fab (Fab, V domains shown, Human Fab from HuCal Gold, expressed in E. coli TG1) VH: QVQLQQSGPGLVKPSQTLSLTCAISGDSVSSNSGGWGWIRQSPGRGLEWLGLIYYRSKWYNAYAVSVKSRITINPDTSKNQFSLQLNSVTPEDTAVYYCARYLGSNFYVYSDVWGQGTLVTVSS VL: DIQMTQSPSSLSASVGDRVTITCRASQGISSYLHWYQQKPGKAPKLLIYGASTLQSGVPSRFSGSGSGTDFTLTISSLQPEDFATYYCQQQNGYPFTFGQGTKVEIKR yielded % inhibition of hTFPI activity of 93%

TP-4H8 Fab (Fab, V domains shown, Human Fab from HuCal Gold, expressed in E. coli TG1) VH: QVQLVESGGGLVQPGGSLRLSCAASGFTFSDHAMHWVRQAPGKGLEWVSVIEYSGSKTNYADSVKGRFTISRDNSKNTLYLQMNSLRAEDTAVYYCARGDYYPYLVFAIWGQGTLVTVSS VL: DIELTQPPSVSVAPGQTARISCSGDSIGKKYVHWYQQKPGQAPVLVIYGDNNRPSGIPERFSGSNSGNTATLTISGTQAEDEADYYCSTADSVITYKNVFGGGTKLTVLG yielded % inhibition of hTFPI activity of 28%

TP-3B4 Fab (Fab, V domains shown, Human Fab from HuCal Gold, expressed in E. coli TG1) VH: QVQLQQSGPGLVKPSQTLSLTCAISGDSVSSNGAAWGWIRQSPGRGLEWLGHIYYRSKWYNSYAVSVKSRITINPDTSKNQFSLQLNSVTPEDTAVYYCARWGGIHDGDIYFDYWGQGTLVTVSS VL: DIQMTQSPSSLSASVGDRVTITCRASQNISNYLNWYQQKPGKAPKLLIYGTSSLQSGVPSRFSGSGSGTDFTLTISSLQPEDFAVYYCQQYGNNPTTFGQGTKVEIKR yielded % inhibition of hTFPI activity of 25%
